The origin of these recorded values is the RNAGym collection of RNA variant scans (doi:10.1126/science.aae0568).

B1: tRNA (parent)
chain: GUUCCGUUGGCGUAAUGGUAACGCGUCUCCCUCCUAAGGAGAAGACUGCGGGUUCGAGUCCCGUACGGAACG

Variants of: B1
procedureSummary: yeast fitness relative to wild type (ratio to wild type); higher = fitter; tRNA-Arg(CCU), competitive growth, 37 C, YPD
Fewer inactive variants are shown than the library holds.
Entries and their measured yeast fitness follow.

residues	censoringSign	yeast fitness
GUUCCGUUGGCGUAAUGGUAAUGCCUCUCCCUCCUAAGGAGAAGACUGCGGGUUCGAGUCCCGUACGGAACG [C22U G25C]	=	0.697
GUUCCGUUGGCGUAAUGGUAACGCGUCUCCCUCCUAACGAGAAGACUGCGGGUUCGAGUCCCGUCCGGAACG [G38C A65C]	=	0.578
GUUUCGUUGGAGUAAUGGUAACGCGUCUCCCUCCUAAGAAGAAGACUGCGAGUUCGAGUCCCGUACCGAACG [C4U C11A G39A G51A G67C]	≤	0.5
GUUCCGUUGGCGUAAUGGUAACGCGUCUUCCUCCUAAGGAGACGACUGCGGGUUCGAGUCCCGUACGGAACG [C29U A43C]	=	0.948
GUUCCGUUGGCGUAAUGGUAACGCGUCUCCCUCCUAAGGAGGUGACUGCGGGUUCGAGUCCCGUACGGAACG [A42G A43U]	=	1.03
GUUCCGUUGGCGUAAUGGUAACGUGUUUCCCUCCUAAGGGGAAGACUGCGGGUUCGAGUCCCGUACGGAACG [C24U C27U A40G]	=	0.563
GUUCCGUUGGCGUAAUGGUAAUGCAUCUCCAUCCUAAGGAGAAGACUGCGGGUUCGAGUCCCGUACGGAACG [C22U G25A C31A]	=	0.728
GUCCCGUUGGCGUAAUGGUAACGCGUCUCCCUCCUAGGGAGAAGACUGCGGGUUCGAGUCCCGUACGGAUCG [U3C A37G A70U]	=	0.568
GUUCCGUUGGCGUGAUGGUAACGCGUCUCCCUCCUAAGGAAAAGACAGCGGGUUCGAGUCCAGUACGGAACG [A14G G41A U47A C62A]	≤	0.5
GUUCUGUUGGCGUAAUGGUAACGCGUCUCGCUCCUAAGGAGAAGACUGCGGGUUCGCGUCCCGUACGGAACG [C5U C30G A57C]	=	0.715
GUUCAGUUGGCGUAAUGGUAACGCGUCUCCCUCCUAAGGAGAAGAUUGCGGGUUCGAGUCCCGUACGGAACG [C5A C46U]	=	0.997
GUUCCGUUGGCGUAAUGGUAACGCAUCUCCCUCCUAAGGAGCAGACUGCGGGUUCGAGUCCCGUACGGAACG [G25A A42C]	=	0.868
